# maps each entry to its Percent Effect
- Tested on: Wolbachia pipientis
- protocol notes: Anti-Wolbachia Cell-Based Screen
- Assay type: functional
- Parameters: scale not given: in the data most compounds retested in dose-response had high values
- condition description: 5 µM
About 13,000 (27%) of roughly 48,000 compounds showed an effect of 50% or more. This is one part of the list.

[
  {
    "compound": "CCC(CNS(C)(=O)=O)Oc1ccccc1F (stereo unspecified)",
    "unit of measurement": "%",
    "Percent Effect": -7.569
  },
  {
    "compound": "Cc1nccc(N(C)Cc2ncc(-c3ccccc3C(=O)O)s2)n1",
    "unit of measurement": "%",
    "Percent Effect": 127.4
  },
  {
    "compound": "O=C(NC1CCCCC1)N1CCC(N2Cc3ncccc3C2=O)CC1",
    "unit of measurement": "%",
    "Percent Effect": 2.597
  },
  {
    "compound": "Cc1nc(CN2CCCC(CCc3cccc(C(F)(F)F)c3)C2)co1 (stereo unspecified)",
    "unit of measurement": "%",
    "Percent Effect": -5.657
  },
  {
    "compound": "CCN(c1ccc(C(=O)N(Cc2cnn(C)c2)C(C)C)cn1)C(C)C",
    "unit of measurement": "%",
    "Percent Effect": -13.88
  },
  {
    "compound": "CCc1cnc(CN(C)C(=O)NC2CCN(c3ccccc3)C2)s1 (stereo unspecified)",
    "unit of measurement": "%",
    "Percent Effect": 0.02013
  },
  {
    "compound": "CCCOC(=O)C(C)Sc1nnnn1C1CCOCC1 (stereo unspecified)",
    "unit of measurement": "%",
    "Percent Effect": -23.26
  },
  {
    "compound": "C1CC1c1nsc(N2CCN(C3CC3)CC2)n1",
    "unit of measurement": "%",
    "Percent Effect": -1.801
  },
  {
    "compound": "CCOc1ccc(N(C)S(=O)(=O)c2c[nH]c(C(C)C)n2)cc1",
    "unit of measurement": "%",
    "Percent Effect": -17.69
  },
  {
    "compound": "NC(=O)CN(C(=O)Cc1cccc(C(F)(F)F)c1)C1CCCC1",
    "unit of measurement": "%",
    "Percent Effect": 0.7845
  },
  {
    "compound": "O=C(c1c2c(NCC3CC3)ncnc2n2ccccc12)N1CCCC1",
    "unit of measurement": "%",
    "Percent Effect": 17.48
  },
  {
    "compound": "Cc1cc(N(C)C)nc(C2COCCN2Cc2csc(C)n2)n1 (stereo unspecified)",
    "unit of measurement": "%",
    "Percent Effect": 76.41
  },
  {
    "compound": "CCN(c1ccc(C(=O)N2CCCC2c2cnn(C)c2)cn1)C(C)C (stereo unspecified)",
    "unit of measurement": "%",
    "Percent Effect": 103.8
  },
  {
    "compound": "Cc1cc(N(C)C)nc(C2COCCN2Cc2nccn2C)n1 (stereo unspecified)",
    "unit of measurement": "%",
    "Percent Effect": 106.8
  },
  {
    "compound": "O=C(Nc1cccc2ccccc12)N1CCC(N2CCSCC2)CC1",
    "unit of measurement": "%",
    "Percent Effect": -0.7759
  },
  {
    "compound": "Cc1cc(CN2CCCC2c2noc(C)n2)no1 (stereo unspecified)",
    "unit of measurement": "%",
    "Percent Effect": -4.781
  },
  {
    "compound": "O=C1C(N2CC[C@@H](O)C2)CCCN1Cc1cccc(C(F)(F)F)c1 (stereo partly specified)",
    "unit of measurement": "%",
    "Percent Effect": 107.1
  },
  {
    "compound": "COCCN1C(=O)[C@H]2CC[C@@H]1CN(C(=O)Cc1c(F)cccc1Cl)C2",
    "unit of measurement": "%",
    "Percent Effect": -1.329
  },
  {
    "compound": "Cc1nnc(SCCNC(=O)c2cc(S(N)(=O)=O)ccc2F)s1",
    "unit of measurement": "%",
    "Percent Effect": 5.633
  },
  {
    "compound": "Cc1nc(C)n(CC2CCCN2Cc2cscn2)n1 (stereo unspecified)",
    "unit of measurement": "%",
    "Percent Effect": -0.8371
  },
  {
    "compound": "Cc1cccc(C)c1C(=O)N1C[C@@H](CN2CCOCC2)[C@@H](CO)C1",
    "unit of measurement": "%",
    "Percent Effect": -12.05
  },
  {
    "compound": "FC(F)(F)c1cccc(CN2CCOC[C@H](Oc3cccnc3)C2)c1",
    "unit of measurement": "%",
    "Percent Effect": -1.353
  },
  {
    "compound": "CSc1cc2c(cc1NC(=O)NCC(=O)N(C)C)OCCO2",
    "unit of measurement": "%",
    "Percent Effect": -7.029
  },
  {
    "compound": "O[C@H]1COCCN(Cc2cccc(C(F)(F)F)c2)C1",
    "unit of measurement": "%",
    "Percent Effect": 1.348
  },
  {
    "compound": "CS(=O)(=O)NCC1CCCN(C(=O)Nc2cccc3ccccc23)C1 (stereo unspecified)",
    "unit of measurement": "%",
    "Percent Effect": 98.14
  },
  {
    "compound": "CCOc1ccc(S(=O)(=O)NCCc2ccc(N(C)C)cc2)cc1F",
    "unit of measurement": "%",
    "Percent Effect": 9.493
  },
  {
    "compound": "O=C1NC[C@@]2(C(=O)O)CN(Cc3cccc(C(F)(F)F)c3)C[C@@H]12",
    "unit of measurement": "%",
    "Percent Effect": -16.76
  },
  {
    "compound": "COc1ccc(-c2nnc([C@H]3CCN(C4CCC4)C3)o2)cc1",
    "unit of measurement": "%",
    "Percent Effect": -7.791
  },
  {
    "compound": "CCOC(=O)N1CCC(N2Cc3ncccc3C2=O)CC1",
    "unit of measurement": "%",
    "Percent Effect": -7.226
  },
  {
    "compound": "COc1ccc(CN2CCN(CC3CC3)[C@@H]3CS(=O)(=O)C[C@@H]32)cc1C",
    "unit of measurement": "%",
    "Percent Effect": 20.23
  },
  {
    "compound": "CCN1CC(CN2CCOCC2)Oc2ncccc2C1=O (stereo unspecified)",
    "unit of measurement": "%",
    "Percent Effect": 121.1
  },
  {
    "compound": "COc1cccc(-c2noc(-c3ccc(NCC(C)C)nc3)n2)c1OC",
    "unit of measurement": "%",
    "Percent Effect": -21.63
  },
  {
    "compound": "CCOCCCC(=O)Nc1cc(C(N)=O)ccc1N1CCCCC1",
    "unit of measurement": "%",
    "Percent Effect": 2.668
  },
  {
    "compound": "Cc1cc(N(C)C)nc(C2COCCN2Cc2cscn2)n1 (stereo unspecified)",
    "unit of measurement": "%",
    "Percent Effect": 100.1
  },
  {
    "compound": "CC(=O)N[C@@H](CC(C)C)C(=O)N1CCC(n2cc(CO)nn2)CC1",
    "unit of measurement": "%",
    "Percent Effect": -15.95
  },
  {
    "compound": "O=C(CN1CCCC1)N1CCCC(CNS(=O)(=O)Cc2ccccc2)C1 (stereo unspecified)",
    "unit of measurement": "%",
    "Percent Effect": 16.47
  },
  {
    "compound": "CCN1C(=O)[C@H]2CN(Cc3cccnc3)C[C@H]2C12CCN(C(C)=O)CC2",
    "unit of measurement": "%",
    "Percent Effect": -22.31
  },
  {
    "compound": "Cc1cc(C)c2nc(CNC3CCCNC3=O)cc(O)c2c1 (stereo unspecified)",
    "unit of measurement": "%",
    "Percent Effect": -9.599
  },
  {
    "compound": "CS(=O)(=O)NCC1CCCN(C(=O)c2ccc3c(c2)CCCC3)C1 (stereo unspecified)",
    "unit of measurement": "%",
    "Percent Effect": 4.156
  },
  {
    "compound": "Cc1cc(N(C)Cc2ncc(-c3ccccc3C(=O)O)s2)ncn1",
    "unit of measurement": "%",
    "Percent Effect": 81.06
  },
  {
    "compound": "CN(C)C(Cn1ccnc1-c1ccccc1C(=O)O)c1ccccc1Cl (stereo unspecified)",
    "unit of measurement": "%",
    "Percent Effect": -23.61
  },
  {
    "compound": "CS(=O)(=O)NCC1CCCN(C(=O)COCc2ccccc2)C1 (stereo unspecified)",
    "unit of measurement": "%",
    "Percent Effect": -4.256
  },
  {
    "compound": "Cc1ccsc1C(Cn1ccnc1-c1ccccc1C(=O)O)N(C)C (stereo unspecified)",
    "unit of measurement": "%",
    "Percent Effect": -13.02
  },
  {
    "compound": "CCCN(CC)c1ccc(C(=O)N2CCCC2c2cnn(C)c2)cn1 (stereo unspecified)",
    "unit of measurement": "%",
    "Percent Effect": 104.2
  },
  {
    "compound": "COc1ncccc1CNC(=O)N1CCC(CN2CCOCC2)CC1",
    "unit of measurement": "%",
    "Percent Effect": -11.8
  },
  {
    "compound": "O=C(O)C(F)(F)F.O=C(O)C(F)(F)F.O=C(O)C(F)(F)F.c1cncc(C[C@H]2[C@H](N3CCOCC3)CCN2Cc2cccs2)c1",
    "unit of measurement": "%",
    "Percent Effect": -5.101
  }
]
